B1: TPR t1 (parent)
chain: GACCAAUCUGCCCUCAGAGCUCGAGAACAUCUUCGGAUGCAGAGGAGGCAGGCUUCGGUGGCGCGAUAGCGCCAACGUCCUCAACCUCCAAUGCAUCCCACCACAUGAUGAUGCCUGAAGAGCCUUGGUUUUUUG

variants of: B1; experiment: polymerase ribozyme fitness, log enrichment relative to wild type (log ratio); higher = more active; in vitro selection for triplet polymerase activity
assayReadout: polymerase ribozyme fitness (log ratio)

{"columns": ["residueCodes", "experimentalValue"],
 "data": [
  ["GACCAAUCAGCCCUCAGAGCUCGAGAACAUCUUCGGAUGCAGAGGAUGCAGGCUUCGGUGGCGCGAUAGCGCCAACGUCCUCAACCUCCAAUGCAUGCUACCACAUGAUGAUGCCUGAAUAGCCUUGGUCUUUUG", -5.08],
  ["GACCAAUCUGCCCUCAGAGCUCGAGAACAUCUUCGGAUGCAGAGUAGGCAGGCUUCGGUGGCGCGAUAGCGCCAACGUCCUCACCCUCCAAUGCAACCCACCACAUGAUAAUGCCUGAAGAGCCUUGGUUAUUUG", -3.98],
  ["GACCAAUCUGCUCUCAGAGCUCGAGAACAUCUUCGGAUCCAGAGGAGGCAGGCUUCGGUGGCGCGAUAGCGCCAACGUCCUCAACCUCCAAUGCAUCCCACCACAUGAUGAUGCCUGAAGAGCCUUCGUUUUAUG", -1.79],
  ["GACCAAACUGCCCUCAGAGUUCGAGAACAUCUUCGGAUGCAGAGGAGGCAGGCUUCGGUGGCGCGAUAGCGCCAACGUCCUCAACCUCCAAUGCAUCCCACCACAUGAUGAUGCCUGAAGAGCCUUGGUUUUUUG", -0.343],
  ["GACCAAUCUGCCCUCAGAGCUCGAGAACAUCUGCGGAUGCAGAGGAGGCGGGCUUCGGUGGCGCGAUAGCGCCAACGUCCUCAACCUCCAAUGCAUCCCACCACAUGAUGAUGCCUGAAGCGCCUUGGUUUUUUG", -4.43],
  ["GACCAAUCUGCACUCAGAGCUCGAGAACAUCUUCGGAUGCAGAGGAGGCAGGCUUCGGUAGCGCGAUAGCGCCAACGUCCUCAACCUCCAAUGCAUCCCACCACAUGAUGAUGCCUGAAGAGCCUUGGUUUUUUG", -1.28],
  ["GACCAAUCUGCCCUCAGAGCUCGAGAACAUCUUCGGAUGCAGAGGUGGCAGGCUUCGGUGGCGUGUUAGCGCCAACGUCCUCAACCUCCAAUGCAUCCCACCACAUGAUGAUGCCUGAAGAGCCUUGGUUUUUUG", -2.06],
  ["GACCAAUCUGCCCUCAGAGCUCGAGAGUAUCUUCGGAUGCAGAGGAGGCAGGCUUUGGUGGCGCGAUAGCGCCAACGUCCACUACCUCCAAUGCAUCCCACCACAUGAUGAUGCCUGAAGCGCCUUGGUUUUUUG", -3.5],
  ["GACCAAUCUGCCCUCAGAGCUCGAGAACAUCUUCGGCUGCAGAGGAGGCAGGCUUCGGUGGCGCGACAGCGCCAACGUCCCCAACCUCCAAUGCAUCCCACCACAUGAUGAUGCCUGAAGAGACUUGGUUUUUUG", -5.95],
  ["GACCACUCUGCCCUCAGAGCUCGAGAACAUCUUCGGAUGCAGAGGAGGCAGGCUUCGGUGGCGCGAUAGCACCAACGUCCUCAACCUCCAAUCCAUCCUACCACAUGAUGAUGCCUGAAGAGACUUGGUAUUUUG", -7.12],
  ["GACCAAUAUGCCCUCAGAGCUCGAGAACAUCUUCGGAUGCAGAGGAGGCAGGCUUCGGAGGCGCGAUAGCGCCAACGUCCUCAACCUCCAAUGCAUCCCACCACAUGAUGAUGCCUGAAGAGCCUUGGUUUUUUG", -0.964],
  ["GGCCAAUCUGCCCUCAGAGCUCGAGAACAUCUUCGGAUGCAGAGGAGGCAGGCUGCGGUGGCGCGAUAGCACCAACGUCCUCAACCUCCAAUGCUUCCCACCACAUGAUGAUGCCUGAAGAGCCUUGGUUUUUUG", -1.12],
  ["GACCAAUCUGCACUCAGAGCUCGAGAACAUCUUCGGAUGCAGAGGAGGCAGGCUUCGGUGGCGCGAUACCGCCAACGUCCUCAACCUCCUAUGCAUCCCACCACAAGAUGAUGCCUGAAGAGCCUUGGUUUUUUG", -4.63],
  ["GAUCAAUCUGCCCUCAGAGCUCGAGAACAUCUUCGGAUGCAGCGGAGGCAGGCUUCGGUGGCGCGAUAGCGCAAACGUCCUCAACCGCCAAUGCAUCCCACCACAUGAUGAUGCCUGAAGAGCCUUGGUUUUUUG", -2.3],
  ["GACCAAUCUGCCCUCAGAGCUCGAGAACAUCUUCGGAUGCAGAGGAGGCAGGCUUCGGUGGCACGAUAGCGCCAACGUCCUCAACCUCCAAUGCAUCCCACUACAUGAUGAUGACUGAAGAGCCUUGGUUUUUUG", -6.03],
  ["GACCAAUCUGCUUUCAGAGCUCGAGAACAUCUUCGGACGAAGAGGAGGCAGGCUUCGGUGGCGCGAUAGCGCCAACGUCCUCAACCUCCAUUGCAUCCCACCACAUGAUGAUGCCUGAAGAGCCUUGGUUUUUUG", -3.21],
  ["GACCAAUCUGCCCUCAGAGCUCGAGAACAUCUUGGGAUGUAGAGGAGGCAGGCUUCGGUGGCGCGAUAGCGCCAACGUCCUCAACCUCCAAUGCAUCCCACCACAUGAUGAUGCCUGAAGAGCCUUGGUUUUUUG", -6.15],
  ["GACCAAUCUGCCCUCAGAGCUCGAGAACAUCUUCGGAUGCAGAGGAGGCAGGCUUCGGUGGAGCGAUAGCGCCAACGUCCUCAACCUCCAAUGCAUCCCACCACAUAAUGAUGCCUGAAGAGCCUUGGUUUUUUG", -5.05],
  ["GACCAAUCUGCCCUCAGAGCUCGAGAACAUCUUCGGAUGCAAAGGAGGCAGGCUUCGGUGGCGCGAUAGCGCAAACGUCCUCAACCUCCAAUGCAUCCCACCAUAUGAUGAUGCCUGAAGAGCCUUGAUUUUUUG", -3.49],
  ["GACCAAUCUGCCCUCAGAGCUCGAGAACAUCUUCGGAUGCAGAGGAGGCAGGCUUCGGUGGCGCGAUAGCGCCAACGUCCUUAACCUCCAAUGCAGCCCACCACAUGAUGAUGCCUGAAGAGCCUUGGUUUUUUG", -1.12],
  ["GACCAAUCUGCCCUCAGAGCUCGAGAACAUCUUCGGAUGCAGAGGAGGCAGGCUUCGGUGGCGCGAUAGCACCAACGUCCUCAACCUCCACUGCAUCCCACCACAUGAUGAUGUCUGAAGAGCCUUGGUUUUCUG", -2.15],
  ["GACCAAUCUGCCCUCAGAGCACGAGAACAUCUUCGGAUGCAGAGGAGGCAGGCUUCGGUAGCGCGAUAGCGCCAACGUCCUCAACCUCCGAUGCAUCCCACCACAUGAUGAUGCCUGAAGAGCCUUGGUUUUUUG", -0.182],
  ["GACCAAUCUGCCCGCAGAGCUCGAGAACAUCUUCGGAUGCAGUGGAGGCAGGCUUCGGUGGCGCGAUAGCGCCAACGUCCUCAACCUGCAAUGCAUCCCACCACAUGAUGAUGCCUGAAGAGCCUUGGUUUUUUG", -3.5]
]}
